Tested on: SF-268
Test: NCI tumour cell line growth inhibition, 48 h
Active and inactive are the calls of the source. Rule as the data show it: active = GI50 up to about 1.1 µM and inactive = higher.
Give measured GI50 for each item. Keep answers brief.

# get_value(readout= GI50, system= SF-268) for OC(CCN1CCN(CCOC(c2ccc(F)cc2)c2ccc(F)cc2)CC1)c1ccc(Br)cc1 (stereo not drawn)
4.76 µM (inactive)

Form field: GI50 recorded for O=C1N/C(=N/N=C/c2ccccc2)N/C1=C\c1c[nH]c2ccccc12 with SF-268 (enter value)
56.6 µM (inactive)

Request: GI50, test system SF-268, entry CCN(CC)Cc1cc(Nc2ccnc3ccc4c(nnn4C)c23)ccc1O
10.2 µM (inactive)

State its GI50 on SF-268: O=C(CSc1nc(=O)c(-c2ccccc2NC(=O)C(F)(F)F)n[nH]1)NC(=O)Nc1ccccc1
56.6 µM (inactive)

Recall the recorded GI50 for N#C/C(=C/N1C(=O)/C(=C/c2ccc([N+](=O)[O-])cc2)SC1=S)c1nc2ccccc2s1 with SF-268 and state it.
24.7 µM (inactive)

// lookup GI50 | system=SF-268 | key= NC(=O)N/C=C1\C(=O)Oc2ccccc2C1=O
95.7 µM (inactive)

// lookup GI50 | system=SF-268 | key= Nc1nc(SCc2ccc([N+](=O)[O-])cc2)nc2c1ncn2C1OC(COP(=O)(O)O)C(O)C1O (stereo not drawn)
> 100 µM (inactive)

Short answer please: GI50, SF-268, entry Clc1ccc(C2=Nc3ccccc3SC(c3cccs3)C2)cc1 (stereo not drawn)
16.3 µM (inactive)

Field: GI50 (SF-268). Entry: Nc1ccccc1C(=O)CCc1c[nH]c2ccccc12
43.4 µM (inactive)

Requested read-out GI50, target or system SF-268, entry O=C1CC(c2ccco2)C2(C(=O)NC(=O)NC2=O)C(c2ccco2)C1 (stereo not drawn)
> 75 µM (inactive)

Test system SF-268; read-out GI50; what value for O=C(Nc1ccc(Cl)c(Cl)c1)C(=O)C(C1OC(=O)c2ccccc21)[N+](=O)[O-] (stereo not drawn) ?
> 100 µM (inactive)

Find the measured GI50: item CC(=O)NC(CCCN(Cc1ccccc1)C(=O)NCCCl)C(=O)NCc1ccccc1 (stereo not drawn) , target or system SF-268.
> 100 µM (inactive)

SF-268 / GI50 / O=C(C/C(=N/O)C(F)(F)F)c1cccs1 : value?
> 100 µM (inactive)

Query GI50 on SF-268 for Nc1ccc(C(=O)NN2C(=O)C(Cl)C2c2ccc([N+](=O)[O-])cc2)cc1 (stereo not drawn)
1.99 µM (inactive)

GI50 of O=C1CCC(=O)N1CNc1ccc2c(c1)Sc1ccccc1O2 on SF-268?
44.8 µM (inactive)

For the record CCn1sc2ccccc2c1=O , what value of GI50 is listed for SF-268?
17.3 µM (inactive)

Missing value: GI50, SF-268, entry O=c1c2cc(Br)ccc2n(C2OC(CO)C(O)C(O)C2O)c(=S)n1-c1ccccc1 (stereo not drawn) . Fill in?
> 100 µM (inactive)

Give GI50 (SF-268) of the following compound: COc1cc(Cn2c(=S)ss/c2=N\C(=S)N(C)C)cc(OC)c1OC
8.93 µM (inactive)

Under SF-268: GI50 value of N#CC(c1ccc(Cl)cc1)c1c(=O)[nH]c2ccc(N)cc2[n+]1[O-] (stereo not drawn) ?
> 100 µM (inactive)

Entry Cc1nc(-n2nc(-c3ccccc3)cc2-c2ccccc2)sc1C(/C=C/c1ccc([N+](=O)[O-])cc1)=N/NC(=O)c1ccncc1 , system SF-268: what GI50 was measured?
20 µM (inactive)

Lab request: please report GI50 under test system SF-268 for Nc1c(-c2ccccc2)c2ccc([N+](=O)[O-])cc2c(=O)n1-c1cccc(C(=O)O)c1
> 100 µM (inactive)

Form: Entry = NCCO/C=C/C(N)C(=O)O (stereo not drawn) [AMINOETHOXYVINYLGLYCINE] | System = SF-268 | GI50 = ____
> 100 µM (inactive)

Requested read-out GI50, target or system SF-268, entry Nc1nc(-c2cccs2)cs1
> 100 µM (inactive)

Any idea what GI50 came out for OCCCCn1cc(Cn2ncc3c(SCc4ccccc4)ncnc32)nn1 on SF-268?
63.1 µM (inactive)

Provide value of GI50 for this record tested with SF-268: CCC1(c2ccc(OC)c(OC)c2)CCN(S(=O)(=O)c2ccc(C)cc2)C1 (stereo not drawn)
> 100 µM (inactive)

Please tell me: GI50 of COc1cccc(C(=O)O)c1Cc1cccc2ccccc12 , system SF-268?
> 100 µM (inactive)

Any idea what GI50 came out for CC1OC(OC2C(O[C@H]3CC[C@@]4(C)C(=CC[C@H]5[C@@H]6C[C@@H]7O[C@]8(CC[C@@H](C)CO8)[C@@H](C)[C@@H]7[C@@]6(C)CC[C@@H]54)C3)OC(CO)C(O)C2OC2OC(CO)C(O)C(O)C2O)C(O)C(O)C1O (stereo partly drawn) on SF-268?
1.9 µM (inactive)

Recall the recorded GI50 for COC1/C=C\OC2(C)Oc3c(C)c(O)c4c(O)c(c(CN(C)C)c(O)c4c3C2=O)NC(=O)/C(C)=C\C=C/C(C)C(O)C(C)C(O)C(C)C(OC(C)=O)C1C (stereo not drawn) with SF-268 and state it.
33.3 µM (inactive)

Form entry - test system: SF-268; read-out: GI50; compound: O=C(O)C1C(=O)Oc2c(cccc2[N+](=O)[O-])C1O (stereo not drawn)
> 100 µM (inactive)

For SF-268, provide GI50 of Nc1n[n+]([O-])c2ccccc2[n+]1[O-] [TIRAPAZAMINE] please.
> 100 µM (inactive)

Reported GI50 for SF-268, given O=C1c2ccoc2C(=O)c2oc(=O)ccc21 ?
9.14 µM (inactive)

What is its GI50 for SF-268? Entry: COc1ccc2c(C(=O)c3c(C)n(CCN4CCOCC4)c4ccccc34)cccc2c1
16.1 µM (inactive)

Can you look up GI50 on SF-268 for CC1=C(O)C(=O)C2C(=O)C1C(C)C2c1ccc(C)cc1 (stereo not drawn) ?
> 100 µM (inactive)

Checklist item: GI50 tested on SF-268, entry CCC(=O)NI1OC(=O)c2ccccc21 , value?
> 100 µM (inactive)

For SF-268, provide GI50 of CCOC(=O)/C(=C\c1ccccc1)C(=O)O please.
> 100 µM (inactive)

// fetch SF-268 GI50 for O=C1C=CC(=O)c2nc3c(cc21)CCC3
17.9 µM (inactive)

Tell me reported GI50 for COc1nc(OC)c2c(=O)oc(-c3ccccc3)cc2n1 , tested with SF-268.
> 100 µM (inactive)

Query the reported GI50 for SF-268; item: CCOP(=O)(OCC)C(Nc1cccc([N+](=O)[O-])c1)c1ccccc1 (stereo not drawn)
> 100 µM (inactive)

Request: GI50, test system SF-268, entry C=CCNC(=O)N(CCCC(NC(C)=O)C(=O)NCc1ccccc1)Cc1ccccc1 (stereo not drawn)
> 100 µM (inactive)

Could you share what GI50 was measured for NCCCCCNOCCCN , tested on SF-268?
> 100 µM (inactive)

Quick check: GI50 on SF-268, item Cc1ccc([S+](c2ccccc2)c2cc(C)ccc2C)cc1 (stereo not drawn) ?
6.64 µM (inactive)

What value of GI50 on SF-268 does O=C1c2ccccc2S(=O)(=O)c2c1cccc2[N+](=O)[O-] have?
3.05 µM (inactive)

Item: Cc1cc2c(cc1Br)C1(C)CCC(C)C1(C)O2 (stereo not drawn) Test system: SF-268 Read-out: GI50 Value: ?
34 µM (inactive)

Data credit: ChEMBL document CHEMBL1201862
